assay.target: Pro-neuregulin-1, membrane-bound isoform (Homo sapiens) (UniProt Q02297)
Sequence (Q02297 whole entry, looked up, canonical isoform): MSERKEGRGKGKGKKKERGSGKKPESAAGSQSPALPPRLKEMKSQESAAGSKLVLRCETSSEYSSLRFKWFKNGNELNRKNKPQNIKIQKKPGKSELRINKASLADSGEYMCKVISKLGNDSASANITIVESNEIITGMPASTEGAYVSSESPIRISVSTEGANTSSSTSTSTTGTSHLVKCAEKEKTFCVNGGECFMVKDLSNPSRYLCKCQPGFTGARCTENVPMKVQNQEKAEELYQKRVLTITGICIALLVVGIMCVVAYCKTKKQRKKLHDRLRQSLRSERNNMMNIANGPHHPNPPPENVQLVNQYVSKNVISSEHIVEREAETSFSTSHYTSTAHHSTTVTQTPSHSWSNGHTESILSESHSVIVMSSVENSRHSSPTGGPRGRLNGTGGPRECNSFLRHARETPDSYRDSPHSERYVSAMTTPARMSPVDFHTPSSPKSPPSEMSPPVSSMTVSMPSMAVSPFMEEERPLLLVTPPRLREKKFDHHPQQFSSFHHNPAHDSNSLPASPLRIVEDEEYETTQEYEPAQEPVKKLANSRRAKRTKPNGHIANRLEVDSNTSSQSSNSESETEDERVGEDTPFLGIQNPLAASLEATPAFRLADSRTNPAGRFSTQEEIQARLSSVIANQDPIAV
method.summary: NRG1 binders on small-molecule microarrays, primary screen, psychiatric disease protein project, biochemical, small-molecule microarray, fluorescence 635/667 (AID 1075);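 further: score combines 667 nm spot fluorescence with signal to noise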
test.settings: NRG1 binding, 635 nm fluorescence, higher = more signal
Decision: composite z-score compared against 0.04; not below it gives t, below it gives f.

- C[N+](C)(C)CCCC[C@@H]1NC(=O)[C@H]2C[C@@H](C(=O)NCc3ccc(F)cc3)[C@@H](c3cccc(OCCO)c3)N2C1=O: t
- COCC(=C=CC[C@H](O)c1ccc(OCCO)cc1)C[C@H](O)c1ccccn1: t
- C#CCNC(/C=C/c1ccccc1)CO (stereo not given): f
- CCOC(=O)C1=CCC(c2cccc3ccccc23)N(S(=O)(=O)c2ccc(C)cc2)C1 (stereo not given): t
- C=CCNC(=O)[C@H]1[C@@H]2C(=O)O[C@@H](c3ccccc3)[C@@H](c3ccccc3)N2[C@@H](c2ccccc2OCCO)[C@]12C(=O)N(C(=O)OCCOC)c1ccc(C#CCNC(N)=O)cc12: t
- C[C@H]1COC(=O)[C@@H]2CCCN2C(=O)[C@@H](C)COC(=O)[C@@H]2CCCN2C1=O: f
- COC(=O)[C@@]1(Cc2ccccc2N=[N+]=[N-])N=C(c2ccc(OCCCO)cc2)O[C@H]1c1ccccc1CN=[N+]=[N-]: t
- O=C1OCCC=C[C@H]2OC34C=CCN(Cc5ccccc5)C(=O)[C@H]3N(CCO)C(=O)[C@@H]4C12 (stereo not given in full): f
- CO[C@H]1COC(=O)CC=C[C@@H](C)COC(=O)[C@@H](C)NC(=O)CC=C[C@@H]1C: f
- O=C1OCC=C[C@H]2OC34C=CCN(Cc5ccccc5)C(=O)[C@H]3N(CCO)C(=O)[C@@H]4[C@@H]12 (stereo not given in full): t
- CO[C@@H]1COC(=O)[C@@H]2CCCN2C(=O)CC=C[C@@H](C)[C@H](OC)COC(=O)[C@@H]2CCCN2C(=O)CC=C[C@H]1C: f
- CCC#CCN(Cc1ccccc1Br)[C@H](/C=C/c1ccccc1)[C@@H](O)Cc1ccccc1: f
- COCCOC(=O)N1C(=O)[C@@]2(c3cc(C#CCNC(N)=O)ccc31)[C@H](c1ccc(OCCO)cc1)N1[C@H](c3ccccc3)[C@H](c3ccccc3)OC(=O)[C@H]1[C@@H]2C(=O)N1CCCCCCC1: f
- CC[C@@H]1C=C(C(=O)O)[C@H](c2ccccc2)N1S(=O)(=O)c1ccc([N+](=O)[O-])cc1: t

Reference source: PubChem BioAssay
